Biological target: T1, Anti-CD28 Fab (SEQ ID NOs: 696, 697)
T1 construct: In the phage ELISA the Fab was biotinylated and captured on neutravidin coated plates
T1 sequence (VH, as listed by the source, chain 1 of 2): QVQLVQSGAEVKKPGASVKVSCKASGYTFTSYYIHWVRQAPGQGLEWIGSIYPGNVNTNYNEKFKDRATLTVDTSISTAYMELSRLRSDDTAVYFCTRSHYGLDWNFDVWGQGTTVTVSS
T1 sequence (VL, as listed by the source, chain 2 of 2): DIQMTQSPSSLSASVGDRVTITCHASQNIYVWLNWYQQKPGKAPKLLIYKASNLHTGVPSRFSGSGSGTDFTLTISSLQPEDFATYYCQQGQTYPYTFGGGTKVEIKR
Assay: phage ELISA; clonal phage supernatant on biotinylated anti-CD28 Fab captured on neutravidin plate, anti-M13-HRP detection
Where no end group is shown, it is not given here.
measured-parameter: Anti-CD28 Fab signal (phage binding ELISA)
Keep it simple and answer with nothing but the number.

Some binders with known Anti-CD28 Fab signal (phage binding ELISA) results, for comparison:
{"binder": "TCAAGAAYPWPLCF [Phage-1377 peptide (SEQ ID NO: 1673)]", "measured-value": 2.18}
{"binder": "SCAAGAMYSWPTCL [Phage-1382 peptide (SEQ ID NO: 1678)]", "measured-value": 2.16}
{"binder": "MCSAGANWPWPLCF [Phage-1379 peptide (SEQ ID NO: 1675)]", "measured-value": 2.18}

Field request: Anti-CD28 Fab signal (phage binding ELISA) | item: RCSAGFHYPLSLCL [Phage-1380 peptide (SEQ ID NO: 1676)]
2.18

Field request: Anti-CD28 Fab signal (phage binding ELISA) | item: MCAAGFHYPWPACL (cysteine pairing not given here; also: fused to phage pIII protein) [Phage-1374 peptide (SEQ ID NO: 1670)]
2.23

Field request: Anti-CD28 Fab signal (phage binding ELISA) | item: TCAAGANWEWPWCF [Phage-1375 peptide (SEQ ID NO: 1671)]
2.22

Field request: Anti-CD28 Fab signal (phage binding ELISA) | item: NCSAGAQWPWPICL [Phage-1383 peptide (SEQ ID NO: 1679)]
2.15
